Target Or System: T1, Anti-CD28 Fab (SEQ ID NOs: 696, 697)
T1 construct: In the phage ELISA the Fab was biotinylated and captured on neutravidin coated plates
T1 sequence (VH, as listed by the source, chain 1 of 2): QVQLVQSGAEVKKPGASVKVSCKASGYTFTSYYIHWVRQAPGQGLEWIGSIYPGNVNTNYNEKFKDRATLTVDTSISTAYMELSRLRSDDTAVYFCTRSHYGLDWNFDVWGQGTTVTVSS
T1 sequence (VL, as listed by the source, chain 2 of 2): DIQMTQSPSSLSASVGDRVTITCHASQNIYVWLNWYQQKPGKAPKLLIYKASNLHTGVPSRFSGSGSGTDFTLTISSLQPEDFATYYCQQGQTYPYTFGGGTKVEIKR
Method: phage binding ELISA; Fab-coated wells pre-incubated with CD28 antigen as competitor, anti-M13 HRP detection;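 further: crude clonal phage supernatants from panned colonies added to wells after blocking buffer plus CD28 treatment, bound phage measured after a brief incubation and washing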
Where no end group is shown, it is not given here.
Result Type: Anti-CD28 Fab signal in the presence of CD28

input: # Anti-CD28 Fab signal in the presence of CD28 lookup, item YCAGHDQQYMEKCL (cysteine pairing not given here; also: displayed fused to phage pIII protein, fusion end and linker not given here, Clonal phage of the peptide-87 library, tested as crude supernatant; not shown: fused to the pIII filament protein of the bacteriophage) [Phage-993]
output: 0.23

input: Quick one: YCDGHLPMYMKKCL (cysteine pairing not given here; also: displayed fused to phage pIII protein, fusion end and linker not given here, Clonal phage of the peptide-87 library, tested as crude supernatant; not shown: fused to the pIII filament protein of the bacteriophage) [Phage-983]
output: 0.1

input: Quick one: YCEGHLDMYVWKCL (cysteine pairing not given here; also: displayed fused to phage pIII protein, fusion end and linker not given here, Clonal phage of the peptide-87 library, tested as crude supernatant; not shown: fused to the pIII filament protein of the bacteriophage) [Phage-985]
output: 0.08

input: Quick one: YCAGHNAQYMSKCL (cysteine pairing not given here; also: displayed fused to phage pIII protein, fusion end and linker not given here, Clonal phage of the peptide-87 library, tested as crude supernatant; not shown: fused to the pIII filament protein of the bacteriophage) [Phage-995]
output: 0.05

Taken from patent US20260242478A1.
